Tested on: p-ERK in AsPC-1 cells (KRAS G12D mutation)
measurement_protocol: Cell p-ERK assay (HTRF) in AsPC-1 cells
Format: cell-based, human
assay_setup: Homo sapiens, ASPC1, 3 h, AsPC-1 cells, 3 h compound incubation, HTRF p-ERK T202/Y204; read-out: AsPC-1 p-ERK IC50
experimental_endpoint: log10(IC50) (log10 of the value in pM)
Recall that a logarithmic scale is used here: each number is log10 of IC50 in pM.

1) CCn1c(-c2cc(C#CCN3CCN(C)S(=O)(=O)CC3)cnc2[C@H](C)OC)c2c3cc(ccc31)-c1csc(n1)C[C@H](NC(=O)[C@H]1[C@H](C)[C@@H]1C)C(=O)N1CCC[C@H](N1)C(=O)OCC(C)(C)C2	2.04
2) CCn1c(-c2cc(C#CCN3CCS(=O)(=O)CC3)cnc2[C@H](C)OC)c2c3cc(ccc31)-c1csc(n1)C[C@H](NC(=O)[C@H]1[C@H](C)[C@@H]1C)C(=O)N1CCC[C@H](N1)C(=O)OCC(C)(C)C2 (atropisomer, axis not shown; (Ra))	1.90
3) CCn1c(-c2cc(C#CCN3CCCOCC3)cnc2[C@H](C)OC)c2c3cc(ccc31)-c1csc(n1)C[C@H](NP1(=O)CC(C)=C(C)C1)C(=O)N1CCC[C@H](N1)C(=O)OCC(C)(C)C2 (atropisomer, axis not shown; (Ra))	3.88
4) CCn1c(-c2cc(C#CCN3CCN(C)C(=O)C3)cnc2[C@H](C)OC)c2c3cc(ccc31)-c1csc(n1)C[C@H](NC(=O)[C@H]1[C@H](C)[C@@H]1C)C(=O)N1CCC[C@H](N1)C(=O)OCC(C)(C)C2 (atropisomer, axis not shown; (Ra))	2.28
5) CCn1c(-c2cc(C#CCN3CCCOCC3)cnc2[C@H](C)OC)c2c3cc(ccc31)-c1csc(n1)C[C@H](NC(=O)C(C)(C)CC)C(=O)N1CCC[C@H](N1)C(=O)OCC(C)(C)C2 (atropisomer, axis not shown; (Ra))	3.23
6) CCn1c(-c2cc(OCC3(N4CCC4)CC3)cnc2[C@H](C)OC)c2c3cc(ccc31)-c1csc(n1)C[C@H](NC(=O)[C@H]1[C@H](C)[C@@H]1C)C(=O)N1CCC[C@H](N1)C(=O)OCC1(CC1)C2	4.27
7) CCn1c(-c2cc(C#C[C@H]3COCCN3C)cnc2[C@H](C)OC)c2c3cc(ccc31)-c1csc(n1)C[C@H](NC(=O)[C@H]1[C@H](C)[C@@H]1C)C(=O)N1CCC[C@H](N1)C(=O)OCC(C)(C)C2 (atropisomer, axis not shown; (Ra))	2.43

Qu. Which measured log10(IC50) value corresponds to CCn1c(-c2cc([C@H]3CCN4CCOC[C@@H]4C3)cnc2[C@H](C)OC)c2c3cc(ccc31)-c1csc(n1)C[C@H](NC(=O)[C@H]1[C@H](C)[C@@H]1C)C(=O)N1CCC[C@H](N1)C(=O)OCC1(CC1)C2 (single isomer, unassigned) ?
Ans. 4.38

----------
Let's look at some molecules and their measured AUC.
measurement_protocol: Pharmacokinetic study in rats
Type: in vivo, Sprague-Dawley (SD) rats
assay_setup: Sprague-Dawley, rat, plasma; male SD rats, PO (intragastric), dose 10 mg/kg; read-out: AUC
Just the number in ng·h/mL, nothing appended.

Some solved entries appear below for comparison.
1) CCn1c(-c2cc(C#CCN3CCS(=O)(=O)CC3)cnc2[C@H](C)OC)c2c3cc(ccc31)-c1csc(n1)C[C@H](NC(=O)[C@H]1[C@H](C)[C@@H]1C)C(=O)N1CCC[C@H](N1)C(=O)OCC(C)(C)C2 (atropisomer, axis not shown; (Ra))	3900
2) CCn1c(-c2cc(C#CCN3CCCOCC3)cnc2[C@H](C)OC)c2c3cc(ccc31)-c1csc(n1)C[C@H](NC(=O)CC1CC1)C(=O)N1CCC[C@H](N1)C(=O)OCC(C)(C)C2 (atropisomer, axis not shown; (Ra))	6840
3) CCn1c(-c2cc(C#CCN3CCCOCC3)cnc2[C@H](C)OC)c2c3cc(ccc31)-c1csc(n1)C[C@H](NC(=O)[C@H]1[C@H](C)[C@@H]1C)C(=O)N1CCC[C@H](N1)C(=O)OCC(C)(C)C2 (single isomer, unassigned)	5320

For the next question, use this molecule.
Qu. Which AUC reading was recorded for the molecule CCn1c(-c2cc(N3CCN(C)CC3)cnc2[C@H](C)OC)c2c3cc(ccc31)-c1csc(n1)C[C@H](NC(=O)[C@H]1[C@H](C)[C@@H]1C)C(=O)N1CCC[C@H](N1)C(=O)OCC(C)(C)C2 (atropisomer, axis not shown; (Ra)) [Control compound 1, reference compound] ?
Ans. 1220

----------
System: p-ERK in AsPC-1 cells (KRAS G12D mutation)
measurement_protocol: Cell p-ERK assay (HTRF) in AsPC-1 cells
Assay type: cell-based, human
assay_setup: Homo sapiens, ASPC1, 3 h, AsPC-1 cells, 3 h compound incubation, HTRF p-ERK T202/Y204; read-out: AsPC-1 p-ERK IC50
experimental_endpoint: pIC50
Field pIC50 (float): negative decimal logarithm of the concentration in molar.

Record excerpt, results attached:
1) CCn1c(-c2cc(C#CCN3CCC(C(F)(F)F)CC3)cnc2[C@H](C)OC)c2c3cc(ccc31)-c1csc(n1)C[C@H](NC(=O)[C@H]1[C@H](C)[C@@H]1C)C(=O)N1CCC[C@H](N1)C(=O)OCC(C)(C)C2 (atropisomer, axis not shown; (Ra)) [Compound Z778]	8.82
2) CCn1c(-c2cc(N3CCN(C)CC3)cnc2[C@H](C)OC)c2c3cc(ccc31)-c1csc(n1)C[C@H](NC1=NCCO1)C(=O)N1CCC[C@H](N1)C(=O)OCC(C)(C)C2 (atropisomer, axis not shown; (Ra)) [Compound Z71]	7.02
3) CCn1c(-c2cc(CC3(N4CCS(=O)(=O)CC4)CC3)cnc2[C@H](C)OC)c2c3cc(ccc31)-c1csc(n1)C[C@H](NC(=O)[C@H]1[C@H](C)[C@@H]1C)C(=O)N1CCC[C@H](N1)C(=O)OCC(C)(C)C2 (atropisomer, axis not shown; (Ra)) [Compound Z484]	8.89
4) CCn1c(-c2cc(OCCN3CCOC4(CC4)C3)cnc2[C@H](C)OC)c2c3cc(ccc31)-c1csc(n1)C[C@H](NC(=O)[C@H]1[C@H](C)[C@@H]1C)C(=O)N1CCC[C@H](N1)C(=O)OCC1(CC1)C2 (atropisomer, axis not shown; (Ra)) [Compound Z375]	8.41
5) CO[C@@H](C)c1ncc(OCCN2CCOC3(CC3)C2)cc1-c1c2c3cc(ccc3n1C(C)C)-c1csc(n1)C[C@H](NC(=O)[C@H]1[C@H](C)[C@@H]1C)C(=O)N1CCC[C@H](N1)C(=O)OCC1(CC1)C2 (atropisomer, axis not shown; (Ra)) [Compound Z462]	8.80
6) CC[C@@H](C)C(=O)N[C@H]1Cc2nc(cs2)-c2ccc3c(c2)c(c(-c2cc(OCCN4CCS(=O)(=O)CC4)cnc2[C@H](C)OC)n3CC)CC(C)(C)COC(=O)[C@@H]2CCCN(N2)C1=O (atropisomer, axis not shown; (Ra)) [Compound Z610]	9.15
7) CCn1c(-c2cc(OCC3(N4CCS(=O)(=O)CC4)CC3)cnc2[C@H](C)OC)c2c3cc(ccc31)-c1csc(n1)C[C@H](NC(=O)[C@H]1[C@H](C)[C@@H]1C)C(=O)N1CCC[C@H](N1)C(=O)OCC(C)(C)C2 (atropisomer, axis not shown; (Ra)) [Compound Z614]	10.05

Let's switch to this compound now.
Qu. Query: pIC50; subject: [2H]C([2H])([2H])O[C@@H](C)c1ncc(N2CCN(C)CC2)cc1-c1c2c3cc(ccc3n1CC)-c1csc(n1)C[C@H](NC(=O)C(C)(C)F)C(=O)N1CCC[C@H](N1)C(=O)OCC(C)(C)C2 (atropisomer, axis not shown; (Ra)) [Compound Z64]
Ans. 8.20

----------
Tested on: p-ERK in AsPC-1 cells (KRAS G12D mutation)
measurement_protocol: Cell p-ERK assay (HTRF) in AsPC-1 cells
Assay type: cell-based, human
assay_setup: Homo sapiens, ASPC1, 3 h, AsPC-1 cells, 3 h compound incubation, HTRF p-ERK T202/Y204; read-out: AsPC-1 p-ERK IC50
experimental_endpoint: IC50 (nM)
Answer in nM, number only, no unit symbol.

1) CCn1c(-c2cc(OC[C@@H]3CCCN3Cc3ccn(C)n3)cnc2[C@H](C)OC)c2c3cc(ccc31)-c1csc(n1)C[C@H](NC(=O)[C@H]1[C@H](C)[C@@H]1C)C(=O)N1CCC[C@H](N1)C(=O)OCC(C)(C)C2 (atropisomer, axis not shown; (Ra)) [Compound Z784-1]	0.89

// next item, IC50 requested
Qu. Entry CCn1c(-c2cc(C#CCN3CCCOCC3)cnc2[C@H](C)OC)c2c3cc(ccc31)-c1csc(n1)C[C@H](NC(=O)C(F)(F)C1CC1)C(=O)N1CCC[C@H](N1)C(=O)OCC(C)(C)C2 (atropisomer, axis not shown; (Ra)) [Compound Z927] : reported IC50 = ?
Ans. 3.89
